Data provenance: patent US8957064B2

Biological target: His-tagged human recombinant kinase full-length Akt2 activated by PDK1 (Homo sapiens (Human))
Sequence (P31751 whole entry): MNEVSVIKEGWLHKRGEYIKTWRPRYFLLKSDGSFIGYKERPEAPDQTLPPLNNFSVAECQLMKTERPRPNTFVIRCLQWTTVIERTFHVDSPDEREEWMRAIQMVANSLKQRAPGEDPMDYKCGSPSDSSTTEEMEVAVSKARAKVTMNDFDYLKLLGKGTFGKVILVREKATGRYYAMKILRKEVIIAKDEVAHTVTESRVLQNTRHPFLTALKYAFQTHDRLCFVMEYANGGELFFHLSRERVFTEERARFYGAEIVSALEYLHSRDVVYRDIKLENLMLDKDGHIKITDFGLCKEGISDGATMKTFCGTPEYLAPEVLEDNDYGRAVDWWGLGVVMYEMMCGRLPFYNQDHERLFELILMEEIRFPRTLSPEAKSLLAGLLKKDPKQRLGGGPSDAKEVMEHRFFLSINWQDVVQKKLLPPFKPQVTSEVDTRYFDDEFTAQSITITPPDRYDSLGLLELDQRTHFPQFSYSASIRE
Assay: Akt2 kinase assay (Akt2 TR-FRET assay, Biological Assay 2.0)
Conditions: 10 μM ATP, 1 μM biotinylated peptide substrate, 60 min at 22° C.
Source text: Biological Assay 2.0: Akt2 Kinase Assay Akt2 inhibitory activity of compounds of the present invention was quantified employing the Akt2 TR-FRET assay as described in the following paragraphs. His-tagged human recombinant kinase full-length Akt2 expressed in insect cells and activated by PDK1 was purchased form Invitrogen (part number PV 3975). […]
ASSAY_METRIC: IC50 (nM)

| SMILES_REPR | IC50 (nM) |
| --- | --- |
| Cc1nc2nc(-c3ccc(CN4CCC(c5nc6cccnc6[nH]5)CC4)cc3)c(-c3ccccc3)cn2n1 | 759 |

a = CCc1cnn2cc(-c3ccccc3)c(-c3ccc(CN4CC(c5n[nH]c(-c6cccc(C)n6)n5)C4)cc3)nc12
b = c1ccc(-c2cn3nccc3nc2-c2ccc(CN3CCC(c4nc5cccnc5[nH]4)CC3)cc2)cc1
# input Could you determine which record has the numerically smaller IC50? Candidates: a and b Record your answer as the label of the chosen record.
# output a
